Entries annotated with measured abundance fitness
B1: Transitional endoplasmic reticulum ATPase, residues 26 to 106; numbered along this chain, P55072 (parent)
chain: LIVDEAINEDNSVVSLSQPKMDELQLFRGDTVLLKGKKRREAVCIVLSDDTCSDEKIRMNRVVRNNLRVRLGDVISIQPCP

variants of: B1; test: abundance fitness (aPCA) (normalised: wild type 0, dead -1); higher = more abundant; growth selection in yeast, the domain comes from the species named; conditions: Homo sapiens
// print number alone

| variant_code | abundance fitness |
| --- | --- |
| E23H | -0.2 |

# input for lookup
Dear colleague, I am looking for the recorded abundance fitness of the following variant: T51K
-0.065
